# experimental_system: Sodium- and chloride-dependent GABA transporter 1 (Mus musculus, UniProt P31648)
# procedure_text: Inhibition of mouse GAT1 expressed in HEK293 cells assessed as reduction in [3H]GABA uptake preincubated for 25 mins followed by [3H]GABA addition and measured after 4 mins by microbeta liquid scintillation counting method
readout_label: IC50 (µM)

Examples with their reported IC50 follow.
compound: COc1ccc(CC(/C=C\CN2CCCC(C(=O)O)C2)(c2ccc(OC)cc2)c2ccc(OC)cc2)cc1 (racemic)
experimental_system: Sodium- and chloride-dependent GABA transporter 1 (Mus musculus, UniProt P31648)
IC50 [µM]: 74.1

compound: COc1ccc(C(/C=C\CCN2CCCC(C(=O)O)C2)(c2ccc(OC)cc2)c2ccc(OC)cc2)cc1 (racemic)
experimental_system: Sodium- and chloride-dependent GABA transporter 1 (Mus musculus, UniProt P31648)
IC50 [µM]: 30.9

compound: COc1ccc(C(C/C=C\CN2CCCC(C(=O)O)C2)(c2ccc(OC)cc2)c2ccc(OC)cc2)cc1 (racemic)
experimental_system: Sodium- and chloride-dependent GABA transporter 1 (Mus musculus, UniProt P31648)
IC50 [µM]: 41.7

compound: O=C(O)C1CCCN(CC/C=C\C(c2ccccc2)(c2ccccc2)c2ccccc2)C1 (racemic)
experimental_system: Sodium- and chloride-dependent GABA transporter 1 (Mus musculus, UniProt P31648)
IC50 [µM]: 40.7

compound: O=C(O)C1CCCN(C/C=C\CC(c2ccccc2)(c2ccccc2)c2ccccc2)C1 (racemic)
experimental_system: Sodium- and chloride-dependent GABA transporter 1 (Mus musculus, UniProt P31648)
IC50 [µM]: 1

a: COc1ccc(C(/C=C\CN2CCCC(C(=O)O)C2)(c2ccc(OC)cc2)c2ccc3c(c2)OCO3)cc1 (racemic)
b: COc1ccc(C(/C=C\CN2CCCC(C(=O)O)C2)(Cc2ccccc2)c2ccc(OC)cc2)cc1 (racemic)
Prompt: Min IC50? a | b Kindly state the label of the option you pick.
Completion: b
(b: 38 µM, a: 95.5 µM)

----------
# System: Sodium- and chloride-dependent GABA transporter 2 (Mus musculus)
# procedure_text: Inhibition of mouse GAT3 expressed in HEK293 cells assessed as remaining [3H]GABA uptake at 100 uM preincubated for 25 mins followed by [3H]GABA addition and measured after 4 mins by liquid scintillation counting method relative to control
readout_label: activity at 100 µM (%)

compound: COc1ccc(C(/C=C\CN2CCCC(C(=O)O)C2)(Cc2ccccc2)c2ccc(OC)cc2)cc1 (racemic)
unit_info: %
activity at 100 µM: 57

a: COc1ccc(C(/C=C\CN2CCCC(C(=O)O)C2)c2ccc(OC)cc2)cc1 (racemic)
b: COc1ccc(C(/C=C\CN2CCCC(C(=O)O)C2)(c2ccc(OC)cc2)c2ccsc2)cc1 (racemic)
Prompt: // pick min by activity at 100 µM: a , b Pick one; state its label.
Completion: b

----------
# experimental_system: Sodium- and chloride-dependent GABA transporter 1 (Mus musculus, UniProt P31648)
readout_label: Ki (µM)

Here is how some molecules turned out for Ki.
molecule: COc1ccc(C(/C=C\CN2CCCC(C(=O)O)C2)c2ccc(OC)cc2)cc1 (racemic)
experimental_system: Sodium- and chloride-dependent GABA transporter 1 (Mus musculus, UniProt P31648)
Ki, µM: 26.3
//
molecule: COc1ccc(C(/C=C\CN2CCCC(C(=O)O)C2)(c2ccc(OC)cc2)c2ccc(OC)cc2)cc1 (racemic)
experimental_system: Sodium- and chloride-dependent GABA transporter 1 (Mus musculus, UniProt P31648)
Ki, µM: 17.8
//
molecule: COc1ccc(CC(/C=C\CN2CCCC(C(=O)O)C2)(c2ccc(OC)cc2)c2ccc(OC)cc2)cc1 (racemic)
experimental_system: Sodium- and chloride-dependent GABA transporter 1 (Mus musculus, UniProt P31648)
Ki, µM: 25.7

a: COc1ccc(C(C/C=C\CN2CCCC(C(=O)O)C2)(c2ccc(OC)cc2)c2ccc(OC)cc2)cc1 (racemic)
b: O=C(O)C1CCCN(C/C=C\CC(c2ccccc2)(c2ccccc2)c2ccccc2)C1 (racemic)
Prompt: Of a versus b , which is the one with smaller reported Ki? Return value: the label identifying the chosen record.
Completion: b

----------
# experimental_system: GABA transporter 4 (Mus musculus, UniProt P31650)
# procedure_text: Inhibition of mouse GAT4 expressed in HEK293 cells assessed as reduction in [3H]GABA uptake preincubated for 25 mins followed by [3H]GABA addition and measured after 4 mins by microbeta liquid scintillation counting method
readout_label: IC50 (µM)

compound: COc1ccc(C(C/C=C\CN2CCCC(C(=O)O)C2)(c2ccc(OC)cc2)c2ccc(OC)cc2)cc1 (racemic)
unit_info: µM
IC50: 61.7
//
compound: COc1ccc(C(/C=C\CCN2CCCC(C(=O)O)C2)(c2ccc(OC)cc2)c2ccc(OC)cc2)cc1 (racemic)
unit_info: µM
IC50: 16.2

a: COc1ccc(C(/C=C\CN2CCCC(C(=O)O)C2)(c2ccc(OC)cc2)c2ccc3c(c2)OCO3)cc1 (racemic)
b: COc1ccc(CC(/C=C\CN2CCCC(C(=O)O)C2)(c2ccc(OC)cc2)c2ccc(OC)cc2)cc1 (racemic)
c: O=C(O)C1CCCN(C/C=C\CC(c2ccccc2)(c2ccccc2)c2ccccc2)C1 (racemic)
d: COc1ccc(C(/C=C\CN2CCCC(C(=O)O)C2)(c2ccc(OC)cc2)c2ccsc2)cc1 (racemic)
Prompt: Arrange the 4 compounds by rising IC50, starting with the smallest. Reply format: the labels, ordered as requested.
Completion: a, c, d, b
(a: 10 µM, c: 15.1 µM, d: 33.1 µM, b: 57.5 µM)

----------
# System: Sodium- and chloride-dependent betaine transporter (Mus musculus)
# procedure_text: Inhibition of mouse GAT2 expressed in HEK293 cells assessed as remaining [3H]GABA uptake at 100 uM preincubated for 25 mins followed by [3H]GABA addition and measured after 10 mins by liquid scintillation counting method relative to control
readout_label: activity at 100 µM (%)

I: COc1ccc(C(O)(/C=C\CN2CCCC(C(=O)O)C2)c2ccc(OC)cc2)cc1 (racemic)
II: COc1ccc(C(C/C=C\CN2CCCC(C(=O)O)C2)(c2ccc(OC)cc2)c2ccc(OC)cc2)cc1 (racemic)
Prompt: I need your help: which of the pair I , II has higher activity at 100 µM? Return value: the label identifying the chosen record.
Completion: I

----------
# Test system: Sodium- and chloride-dependent GABA transporter 2 (Mus musculus)
# procedure_text: Inhibition of mouse GAT3 expressed in HEK293 cells assessed as remaining [3H]GABA uptake at 100 uM preincubated for 25 mins followed by [3H]GABA addition and measured after 4 mins by liquid scintillation counting method relative to control
readout_label: activity at 100 µM (%)

compound: O=C(O)C1CCCN(C/C=C\CC(c2ccccc2)(c2ccccc2)c2ccccc2)C1 (racemic)
unit_info: %
activity at 100 µM: 56
--
compound: COc1ccc(C(O)(/C=C\CN2CCCC(C(=O)O)C2)c2ccc(OC)cc2)cc1 (racemic)
unit_info: %
activity at 100 µM: 97
--
compound: COc1ccc(C(/C=C\CN2CCCC(C(=O)O)C2)(c2ccc(OC)cc2)c2nccs2)cc1 (racemic)
unit_info: %
activity at 100 µM: 78

----------
# experimental_system: GABA transporter 4 (Mus musculus)
# Sequence (P31650 whole entry): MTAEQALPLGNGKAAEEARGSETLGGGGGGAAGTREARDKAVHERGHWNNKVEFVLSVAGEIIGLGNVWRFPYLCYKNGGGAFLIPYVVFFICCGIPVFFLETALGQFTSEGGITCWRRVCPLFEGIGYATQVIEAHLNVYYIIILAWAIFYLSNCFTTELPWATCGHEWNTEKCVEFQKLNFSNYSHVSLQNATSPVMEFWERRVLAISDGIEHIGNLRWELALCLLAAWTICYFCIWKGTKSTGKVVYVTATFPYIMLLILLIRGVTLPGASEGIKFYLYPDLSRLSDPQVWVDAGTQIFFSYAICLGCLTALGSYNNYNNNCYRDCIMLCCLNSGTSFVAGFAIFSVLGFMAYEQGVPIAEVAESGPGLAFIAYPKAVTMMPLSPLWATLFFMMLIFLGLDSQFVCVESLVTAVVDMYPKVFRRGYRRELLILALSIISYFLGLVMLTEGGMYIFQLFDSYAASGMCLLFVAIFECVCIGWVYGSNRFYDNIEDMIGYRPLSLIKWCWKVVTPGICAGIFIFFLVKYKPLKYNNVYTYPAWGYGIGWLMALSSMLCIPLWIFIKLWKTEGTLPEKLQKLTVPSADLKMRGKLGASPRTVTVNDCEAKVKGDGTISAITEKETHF
# procedure_text: Inhibition of mouse GAT4 expressed in HEK293 cells assessed as reduction in [3H]GABA uptake preincubated for 25 mins followed by [3H]GABA addition and measured after 4 mins by microbeta liquid scintillation counting method
pIC50: −log10 of the molar value.
readout_label: pIC50

1: COc1ccc(C(/C=C\CN2CCCC(C(=O)O)C2)c2ccc(OC)cc2)cc1 (racemic)
2: O=C(O)C1CCCN(CC/C=C\C(c2ccccc2)(c2ccccc2)c2ccccc2)C1 (racemic)
Prompt: Between 1 and 2 , which one shows the larger pIC50 value? Please respond with the label that marks your chosen entry.
Completion: 2
(2: 4.76, 1: 4.31)
